test system: PfHDP1 homeodomain (GST-tagged); assay: gcPBM binding intensity (ln(normalized median fluorescence intensity)); higher = stronger DNA binding
In all, about 25,000 sequences were measured (“ln(normalized median fluorescence intensity)”: median about 6.7, highest 2% from about 10 on). Only a selection was taken, and the highest values are over-represented in it overall.
Decide by gcPBM binding intensity (ln): equal to or exceeding 7 means YES, less means NO.

{"ITEM_SEQUENCE": "TCCTTTCAACCATATATAATGACATGTACTCAAAAA [GTGCAC_negctrl_site417]", "TEST_SYSTEM": "PfHDP1 homeodomain (GST-tagged)", "CAT": "NO"}
{"ITEM_SEQUENCE": "CCATAATATTATAGACGTACGAATATATATAAAAGA [XGTACX_site7295]", "TEST_SYSTEM": "PfHDP1 homeodomain (GST-tagged)", "CAT": "YES"}
{"ITEM_SEQUENCE": "ATAATACATATAGAAGGTACACTATTATTTTCCTGA [XGTACX_site903]", "TEST_SYSTEM": "PfHDP1 homeodomain (GST-tagged)", "CAT": "NO"}
{"ITEM_SEQUENCE": "ATTATATATAAGAAGAGTACTGAATATGTGCAATAT [XGTACX_site4471]", "TEST_SYSTEM": "PfHDP1 homeodomain (GST-tagged)", "CAT": "YES"}
{"ITEM_SEQUENCE": "TATATATATTTCCAGTGTACTTATTTTTTAATCAAT [XGTACX_site8220]", "TEST_SYSTEM": "PfHDP1 homeodomain (GST-tagged)", "CAT": "NO"}
{"ITEM_SEQUENCE": "AATTATAATTAATAGAGTACTGAATATATATATATA [XGTACX_site8683]", "TEST_SYSTEM": "PfHDP1 homeodomain (GST-tagged)", "CAT": "YES"}
{"ITEM_SEQUENCE": "TTAATATTCCAGCTTTGTACATATATATATTATAAA [XGTACX_site7954]", "TEST_SYSTEM": "PfHDP1 homeodomain (GST-tagged)", "CAT": "NO"}

Data origin, for the record: the supplement of paper PMC11417369
